target: RIPK2 (KD)/XIAP (BIR2) (Homo sapiens, UniProt O43353); test: RIPK2-XIAP binding competition PPI assay (TR-FRET); settings: GST-RIPK2 / His-XIAP (BIR2)-avi, 120 min at 23° C.
Sequence (O43353 1-310): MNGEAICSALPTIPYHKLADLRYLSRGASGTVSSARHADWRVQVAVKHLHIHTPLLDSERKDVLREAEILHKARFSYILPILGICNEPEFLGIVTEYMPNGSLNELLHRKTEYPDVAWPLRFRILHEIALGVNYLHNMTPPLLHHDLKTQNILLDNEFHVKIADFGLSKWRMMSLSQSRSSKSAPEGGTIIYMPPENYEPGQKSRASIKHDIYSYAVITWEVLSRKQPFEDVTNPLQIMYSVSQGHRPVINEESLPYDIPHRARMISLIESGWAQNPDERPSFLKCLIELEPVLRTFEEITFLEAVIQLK
pIC50: −log10 of the molar value.
READOUT_KIND: pIC50

COMPOUND	READOUT_KIND	ASSAY_VALUE
C[C@@H](NC(=O)c1cc(-c2cnn3cc(OCCO)c(S(=O)(=O)C(C)(C)C)cc23)nn1C)c1ccccn1	pIC50	7.00 to 8.00
COc1cc2ncc(-c3cc(C(=O)N[C@@H]4C[C@@H]4c4ccccc4)n(C)n3)n2cc1S(=O)(=O)C(C)(C)C (single isomer, unassigned) [Example 30]	pIC50	< 6.00
COc1cc2ncc(-c3cc(NC(=O)C4(F)CCCCC4)n(CCO)n3)n2cc1S(=O)(=O)C(C)(C)C	pIC50	6.00 to 7.00
COc1cc2ncc(-n3cc(C(=O)NCc4ccccc4Cl)cn3)n2cc1S(=O)(=O)C(C)(C)C	pIC50	6.00 to 7.00

---

biological target: RIPK2 (KD)/XIAP (BIR2) (Homo sapiens); construct: made in house; host or cells: baculovirus-infected Sf9 cells; assay: RIPK2-XIAP binding competition PPI assay (TR-FRET); settings: 50 nM of GSK583 = -100% activity, read-out: PPI Amax
Quick list: Emax per entry.
READOUT_KIND: Emax

COc1cc2ncc(-c3cc(C(=O)NCc4ncn(C)n4)n(C)n3)n2cc1S(=O)(=O)C(C)(C)C ≥ 80%
COc1cc2ncc(-c3cc(C(=O)NCc4ccncn4)n(C)n3)n2cc1S(=O)(=O)C(C)(C)C ≤ 30%
COc1ccccc1CNC(=O)c1cc(-c2cnc3cc(OC)c(S(=O)(=O)C(C)(C)C)cn23)nn1C ≥ 80%
CCn1nc(-c2cnc3cc(OCCO)c(S(=O)(=O)C(C)(C)C)cn23)cc1C(=O)N[C@H](C)c1ncc(C)s1 ≥ 80%

---

target: RIPK2 (KD)/XIAP (BIR2) (Homo sapiens, UniProt O43353); assay: RIPK2-XIAP binding competition PPI assay (TR-FRET); details: GST-RIPK2 / His-XIAP (BIR2)-avi, 120 min at 23° C.

MOLECULE	IC50
COc1cc2ncc(-c3cc(C(=O)NCC4CCCCC4)n(C)n3)n2cc1S(=O)(=O)C(C)(C)C	0.1 to 1 µM
COc1cc2ncc(-c3cc(C(=O)NCc4cc(F)ccn4)n(C)n3)n2cc1S(=O)(=O)C(C)(C)C	0.1 to 1 µM
COc1cc2ncc(-c3cc(C(=O)N[C@H](C)c4ncccc4F)n(C4CNC4)n3)n2cc1S(=O)(=O)C(C)(C)C	0.1 to 1 µM
COc1cc2ncc(-n3cc(NC(=O)[C@H]4CC[C@@H](O)CC4)cn3)n2cc1S(=O)(=O)C(C)(C)C	> 1 µM
COc1cc2ncc(-n3cc(NC(=O)C4CC4)cn3)n2cc1S(=O)(=O)C(C)(C)C	> 1 µM
COc1cc2ncc(-c3cc(C(=O)N[C@@H]4C[C@@H]4c4ccccc4)n(C)n3)n2cc1S(=O)(=O)C(C)(C)C (single isomer, unassigned) [Example 31]	> 1 µM
COc1cc2ncc(-n3cc(NC(=O)C4CCC(F)(F)CC4)cn3)n2cc1S(=O)(=O)C(C)(C)C	> 1 µM
CCn1nc(-c2cnc3cc(OCCO)c(S(=O)(=O)C(C)(C)C)cn23)cc1C(=O)NCc1nccs1	< 0.01 µM
COc1cc2ncc(-c3cc(C(=O)N[C@H](C)c4ccccn4)n(CC(F)(F)CO)n3)n2cc1S(=O)(=O)C(C)(C)C	0.01 to 0.1 µM
COc1cc2ncc(-c3cc(C(=O)N[C@@H]4CCc5cccnc54)n(C)n3)n2cc1S(=O)(=O)C(C)(C)C	0.1 to 1 µM
COc1cc2ncc(-c3cc(C(=O)Nc4ccccc4)n(C)n3)n2cc1S(=O)(=O)C(C)(C)C	> 1 µM
COc1cc2ncc(-c3cc(C(=O)N[C@H](C)c4ccccn4)n(CCO)n3)n2cc1S(=O)(=O)C(C)(C)C	0.01 to 0.1 µM
COc1cc2ncc(-c3cc(C(=O)NCc4cc(C)sn4)n(C)n3)n2cc1S(=O)(=O)C(C)(C)C	0.01 to 0.1 µM
COc1cc2ncc(-n3cc(NC(=O)C4(F)CCCCC4)cn3)n2cc1S(=O)(=O)C(C)(C)C	> 1 µM

---

biological target: GST-RIPK2 fusion protein (human RIPK2 amino acids 1-310) (Homo sapiens, UniProt O43353); assay: RIPK2 binding competition assay (TR-FRET, Tracer 199); conditions: displacement of Tracer 199 (10 nM), 45 min at 22° C.
Sequence (O43353 1-310): as above

MOLECULE	IC50
COc1cc2ncc(-n3cc(NC(=O)CC4CCCCC4)cn3)n2cc1S(=O)(=O)C(C)(C)C [Example 167]	> 1000 nM
COc1cc2ncc(-c3cc(NC(=O)C4(F)CCCCC4)n(C)n3)n2cc1S(=O)(=O)C(C)(C)C [Example 176]	< 200 nM
COc1ccn2ncc(-c3cc(NC(=O)C4(F)CCCCC4)n(CCO)n3)c2n1 [compound 194]	> 1000 nM
COc1cc2ncc(-n3cc(N4CCC(c5ccccc5)C4=O)cn3)n2cc1S(=O)(=O)C(C)(C)C (single isomer, unassigned) [Example 183]	> 1000 nM
COc1cc2ncc(-c3cc(NC(=O)Cc4ccccc4Cl)n(C)n3)n2cc1S(=O)(=O)C(C)(C)C [Example 185]	< 200 nM
COc1cc2ncc(-n3cc(NC(=O)C4CC4)cn3)n2cc1S(=O)(=O)C(C)(C)C [Example 163]	> 1000 nM
COc1cc2ncc(-c3cc(NC(=O)C4(F)CCCCC4)n(CCO)n3)n2cc1S(=O)(=O)C(C)(C)C [Example 193]	< 200 nM
COc1cc2ncc(-n3cc(N4CCC5(CCCCC5)C4=O)cn3)n2cc1S(=O)(=O)C(C)(C)C [Example 181]	> 1000 nM
COc1cc2ncc(-c3cc(C(=O)N(C)C)n(C)n3)n2cc1S(=O)(=O)C(C)(C)C [Example 5]	< 200 nM
COc1cc2ncc(-n3cc(NC(=O)C4(F)CCC5(CC5)CC4)cn3)n2cc1S(=O)(=O)C(C)(C)C [Example 174]	500 to 1000 nM
COc1cc2ncc(-n3cc(NC(=O)Cc4ccccc4Cl)cn3)n2cc1S(=O)(=O)C(C)(C)C [Example 152]	< 200 nM
COc1cc2ncc(-n3cc(NC(=O)C4(F)CCCCC4)cn3)n2cc1S(=O)(=O)C(C)(C)C [Example 169]	200 to 500 nM
COc1cc2ncc(-n3cc(NC(=O)N4CCCC4c4ccccc4)cn3)n2cc1S(=O)(=O)C(C)(C)C (racemic) [Example 177]	> 1000 nM
COc1cc2ncc(-n3cc(NC(=O)N4CCCC4c4ccccc4)cn3)n2cc1S(=O)(=O)C(C)(C)C (single isomer, unassigned) [Example 178]	> 1000 nM
COc1cc2ncc(-n3cc(NC(=O)c4ccccc4)cn3)n2cc1S(=O)(=O)C(C)(C)C [Example 170]	> 1000 nM
COc1cc2ncc(-c3cc(C(=O)NC4CCCCC4)n(C)n3)n2cc1S(=O)(=O)C(C)(C)C [Example 6]	> 1000 nM
COc1cc2ncc(-n3cc(NC(=O)[C@H]4C[C@H]4c4ccccc4)cn3)n2cc1S(=O)(=O)C(C)(C)C [Example 171]	< 200 nM
COc1cc2ncc(-n3cc(NC(=O)[C@@H]4C[C@H]4c4ccccc4)cn3)n2cc1S(=O)(=O)C(C)(C)C [Example 168]	> 1000 nM
COc1cc2ncc(-c3cc(NC(=O)Cc4ccccc4Cl)n(C)n3)n2cc1C1(F)CCN(C)CC1 [Example 186]	< 200 nM
COc1cc2ncc(-n3cc(NC(=O)C4CCCCC4)cn3)n2cc1S(=O)(=O)C(C)(C)C [Example 164]	> 1000 nM
COc1cc2ncc(-n3cc(NC(=O)[C@@H](C)c4ccccc4)cn3)n2cc1S(=O)(=O)C(C)(C)C [Example 162]	500 to 1000 nM
CN1CCC(Nc2cncc(-c3cc(NC(=O)Cc4ccccc4Cl)n(C)n3)c2)CC1 [Example 184]	< 200 nM
COc1cc2ncc(-n3cc(N4CCC(c5ccccc5)C4=O)cn3)n2cc1S(=O)(=O)C(C)(C)C (racemic) [Example 180]	> 1000 nM
COc1cc2ncc(-n3cc(NC(=O)OC(C)(C)C)cn3)n2cc1SC(C)(C)C [Example 153]	200 to 500 nM
COc1cc2ncc(-n3cc(NC(=O)[C@H](C)c4ccccc4)cn3)n2cc1S(=O)(=O)C(C)(C)C [Example 161]	200 to 500 nM
COc1cc2ncc(-c3cc(C(=O)NCc4ccccc4Cl)n(C)n3)n2cc1S(=O)(=O)C(C)(C)C [Example 4]	< 200 nM
COc1cc2ncc(-n3cc(NC(=O)Cc4cc(F)ccc4Cl)cn3)n2cc1S(=O)(=O)C(C)(C)C [Example 157]	500 to 1000 nM
COc1cc2ncc(-n3cc(NC(=O)Cc4c(F)cccc4Cl)cn3)n2cc1S(=O)(=O)C(C)(C)C [Example 159]	< 200 nM
